Reference source for all entries: the NIST ThermoML archive (doi:10.1016/j.fluid.2009.12.002)

Examples of compounds with documented mass density follow.
COND: 343.15 K; Liquid; Vibrating tube method

[
  {
    "COMPOUND": "Cc1ccc(C)cc1 [1,4-dimethylbenzene]",
    "mass density, kg/m3": 816.664
  },
  {
    "COMPOUND": "CNC=O [N-methylformamide]",
    "mass density, kg/m3": 958.765
  },
  {
    "COMPOUND": "Cc1ccccc1C [1,2-dimethylbenzene]",
    "mass density, kg/m3": 837.399
  },
  {
    "COMPOUND": "Cc1cccc(C)c1 [1,3-dimethylbenzene]",
    "mass density, kg/m3": 820.443
  }
]
